Molecular target: T1, recombinant human complement factor H (CFH), isolated from moss (human, UniProt P08603 19-1231)
T1 chain: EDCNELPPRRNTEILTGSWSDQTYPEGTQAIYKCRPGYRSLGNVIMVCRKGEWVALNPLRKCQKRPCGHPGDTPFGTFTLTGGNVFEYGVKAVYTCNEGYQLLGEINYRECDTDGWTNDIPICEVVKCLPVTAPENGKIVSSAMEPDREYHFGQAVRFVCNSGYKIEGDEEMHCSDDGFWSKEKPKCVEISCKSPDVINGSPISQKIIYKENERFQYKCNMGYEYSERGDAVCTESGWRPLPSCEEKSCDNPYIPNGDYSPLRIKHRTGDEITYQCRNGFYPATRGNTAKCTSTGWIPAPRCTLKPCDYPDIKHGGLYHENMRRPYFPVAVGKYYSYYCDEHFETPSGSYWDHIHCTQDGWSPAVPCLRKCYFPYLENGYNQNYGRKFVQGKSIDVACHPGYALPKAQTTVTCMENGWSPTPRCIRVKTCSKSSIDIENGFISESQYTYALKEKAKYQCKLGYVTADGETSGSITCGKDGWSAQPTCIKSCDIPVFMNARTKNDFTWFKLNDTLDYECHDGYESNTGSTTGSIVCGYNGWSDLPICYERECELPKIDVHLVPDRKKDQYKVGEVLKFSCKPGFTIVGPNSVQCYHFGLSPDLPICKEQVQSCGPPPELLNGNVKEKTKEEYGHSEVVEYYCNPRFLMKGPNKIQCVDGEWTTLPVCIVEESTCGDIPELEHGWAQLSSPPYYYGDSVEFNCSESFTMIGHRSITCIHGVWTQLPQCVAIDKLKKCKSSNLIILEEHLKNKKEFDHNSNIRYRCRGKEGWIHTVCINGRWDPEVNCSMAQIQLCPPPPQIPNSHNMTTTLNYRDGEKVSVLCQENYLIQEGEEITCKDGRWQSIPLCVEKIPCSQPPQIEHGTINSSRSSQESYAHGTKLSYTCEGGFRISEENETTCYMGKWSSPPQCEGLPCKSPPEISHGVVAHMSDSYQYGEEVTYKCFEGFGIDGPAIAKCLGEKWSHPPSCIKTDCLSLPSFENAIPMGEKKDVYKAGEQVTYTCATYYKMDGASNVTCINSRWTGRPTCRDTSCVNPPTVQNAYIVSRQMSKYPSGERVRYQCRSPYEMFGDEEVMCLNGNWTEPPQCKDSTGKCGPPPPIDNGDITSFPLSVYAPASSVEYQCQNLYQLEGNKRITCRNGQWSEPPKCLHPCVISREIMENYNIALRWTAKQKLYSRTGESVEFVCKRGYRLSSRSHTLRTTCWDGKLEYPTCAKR
Experiment: SPR; steady state
Quantity measured: Kd
A complete answer gives the number and then names the unit.

Qu. Supply measured Kd of 209202 (protein) NAADLDEAQISAIFEIMDLPNLTWQQQEWFIDSLSDDPSVSKEVLGEAQKLNDSQAPK in your reply.
Ans. 35 nM

Entry source: patent US20230416313A1
